experiment: Cytotoxicity against human MCF-10A cells assessed as cell viability at 50 uM measured after 4 days by MTT assay relative to control; format: toxicity, cell-based; settings: MCF-10A cells, time 4 day, read-out: Activity
Recorded viability at 96 h, 50 µM, one value per entry.
The response must be a number in % with no trailing unit.

Reference set, count: 2
COc1ccc2[nH]c(=O)cc(-n3nc(-c4ccccc4)cc3-c3ccccc3)c2c1 : 93
Cc1cccc2c(-n3nc(-c4ccccc4)cc3-c3ccccc3)cc(=O)[nH]c12 : 90

Find the measured viability at 96 h, 50 µM of Cc1ccc2c(-n3nc(C)cc3C)cc(=O)[nH]c2c1 and report it.
90

Find the measured viability at 96 h, 50 µM of Cc1ccc2[nH]c(=O)cc(-n3nc(-c4ccccc4)cc3-c3ccccc3)c2c1 and report it.
90

Find the measured viability at 96 h, 50 µM of Cc1ccc2c(-n3nc(-c4ccccc4)cc3-c3ccccc3)cc(=O)[nH]c2c1 and report it.
91
